Target: T1, recombinant Fc-tag-fused human Notch-1 extracellular domain (Homo sapiens, UniProt P46531)
T1 construct: Notch-1, human, extracellular domain; the R&D Systems product may hold only part of the ectodomain (surmise); also called N1; Fc-Notch; source: bought: R&D Systems
T1 sequence (P46531 19-1735): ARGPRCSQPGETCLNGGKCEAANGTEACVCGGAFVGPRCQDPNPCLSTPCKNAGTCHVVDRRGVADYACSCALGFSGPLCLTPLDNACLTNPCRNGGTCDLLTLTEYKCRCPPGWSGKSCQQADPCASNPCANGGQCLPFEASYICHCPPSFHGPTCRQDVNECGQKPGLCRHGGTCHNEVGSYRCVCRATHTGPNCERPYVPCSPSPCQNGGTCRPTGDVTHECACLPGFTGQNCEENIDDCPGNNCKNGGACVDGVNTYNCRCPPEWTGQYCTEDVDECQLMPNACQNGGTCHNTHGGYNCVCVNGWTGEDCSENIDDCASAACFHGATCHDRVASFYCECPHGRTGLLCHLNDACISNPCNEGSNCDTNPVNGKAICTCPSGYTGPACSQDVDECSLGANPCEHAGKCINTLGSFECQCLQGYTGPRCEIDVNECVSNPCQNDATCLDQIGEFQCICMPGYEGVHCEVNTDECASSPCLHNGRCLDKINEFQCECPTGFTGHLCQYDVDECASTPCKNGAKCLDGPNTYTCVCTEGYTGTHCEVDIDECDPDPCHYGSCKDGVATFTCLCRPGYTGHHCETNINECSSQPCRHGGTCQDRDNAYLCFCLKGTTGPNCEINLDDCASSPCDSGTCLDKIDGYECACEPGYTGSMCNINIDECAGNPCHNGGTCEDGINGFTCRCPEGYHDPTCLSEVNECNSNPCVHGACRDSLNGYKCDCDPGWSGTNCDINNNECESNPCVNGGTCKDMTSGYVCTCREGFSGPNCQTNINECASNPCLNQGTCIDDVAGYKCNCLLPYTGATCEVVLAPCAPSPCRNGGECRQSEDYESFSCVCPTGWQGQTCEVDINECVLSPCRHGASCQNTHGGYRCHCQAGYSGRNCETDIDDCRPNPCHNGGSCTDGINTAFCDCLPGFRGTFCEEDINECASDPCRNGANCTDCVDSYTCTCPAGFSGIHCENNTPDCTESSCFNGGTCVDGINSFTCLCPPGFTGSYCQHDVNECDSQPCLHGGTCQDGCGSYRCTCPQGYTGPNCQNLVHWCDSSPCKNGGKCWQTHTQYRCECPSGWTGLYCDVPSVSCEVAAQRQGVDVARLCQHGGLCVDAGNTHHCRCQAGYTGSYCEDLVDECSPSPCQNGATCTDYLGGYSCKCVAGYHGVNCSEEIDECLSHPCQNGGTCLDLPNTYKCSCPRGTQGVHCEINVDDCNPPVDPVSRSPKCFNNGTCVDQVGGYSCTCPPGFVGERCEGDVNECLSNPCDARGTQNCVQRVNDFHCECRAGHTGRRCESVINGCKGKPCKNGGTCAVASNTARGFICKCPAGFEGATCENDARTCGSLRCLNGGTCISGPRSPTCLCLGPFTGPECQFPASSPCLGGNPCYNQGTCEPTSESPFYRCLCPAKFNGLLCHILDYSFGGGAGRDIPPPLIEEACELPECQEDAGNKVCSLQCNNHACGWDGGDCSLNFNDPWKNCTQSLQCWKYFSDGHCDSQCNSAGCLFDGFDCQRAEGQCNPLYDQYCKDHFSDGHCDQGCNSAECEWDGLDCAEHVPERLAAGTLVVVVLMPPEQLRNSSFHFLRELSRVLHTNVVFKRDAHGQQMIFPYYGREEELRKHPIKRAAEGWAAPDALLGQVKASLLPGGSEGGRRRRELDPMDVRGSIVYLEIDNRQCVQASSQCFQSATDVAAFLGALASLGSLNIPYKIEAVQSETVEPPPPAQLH
Assay: BLI; Fabs immobilised on amine-reactive generation-2 or anti-Fab CH1 biosensors, target proteins in solution at at least three concentrations; 25°C, PBS; global fit to a 1:1 binding model; apparent constants (Fc fusions may dimerize)
Details: both partners purified
Decide by kon: equal to or exceeding 200000 M⁻¹ s⁻¹ means 1, less means 0.

* Fab N1/F/R2 (Fab, V domains shown, Library-F rare Fab reconstructed from NGS information, modified trastuzumab framework; Library-F rare Fab reconstructed from NGS information, modified trastuzumab framework, CDRs L1 and L2 fixed; The Fab has a His tag (detected with anti-HIS antibody and biosensors); Library-F framework: Persson et al., 2013; source: E. coli BL21, purified (Protein-L resin)) VH: EVQLVESGGGLVQPGGSLRLSCAASGFNFSSSSIHWVRQAPGKGLEWVASIYSYYGYTYYADSVKGRFTISADTSKNTAYLQMNSLRAEDTAVYYCARSWWGGSWYAALDYWGQGTLVTVSS VL: DIQMTQSPSSLSASVGDRVTITCRASQSVSSAVAWYQQKPGKAPKLLIYSASSLYSGVPSRFSGSRSGTDFTLTISSLQPEDFATYYCQQWWSLITFGQGTKVEIK | 0
* Fab N1/F/1 (Fab, V domains shown, Library-F Fab on a modified trastuzumab framework; Library-F Fab on a modified trastuzumab framework, CDRs L1 and L2 fixed; The Fab has a His tag (detected with anti-HIS antibody and biosensors); Library-F framework: Persson et al., 2013; source: E. coli BL21, purified (Protein-L resin)) VH: EVQLVESGGGLVQPGGSLRLSCAASGFNISSYSMHWVRQAPGKGLEWVAYISSSYGSTYYADSVKGRFTISADTSKNTAYLQMNSLRAEDTAVYYCARSWALDYWGQGTLVTVSS VL: DIQMTQSPSSLSASVGDRVTITCRASQSVSSAVAWYQQKPGKAPKLLIYSASSLYSGVPSRFSGSRSGTDFTLTISSLQPEDFATYYCQQYWGPITFGQGTKVEIK | 1
* Fab N1/F/3 (Fab, V domains shown, Library-F Fab on a modified trastuzumab framework; Library-F Fab on a modified trastuzumab framework, CDRs L1 and L2 fixed; The Fab has a His tag (detected with anti-HIS antibody and biosensors); Library-F framework: Persson et al., 2013; source: E. coli BL21, purified (Protein-L resin)) VH: EVQLVESGGGLVQPGGSLRLSCAASGFNLYSYYIHWVRQAPGKGLEWVASISSYYGYTSYADSVKGRFTISADTSKNTAYLQMNSLRAEDTAVYYCARYWHGALDYWGQGTLVTVSS VL: DIQMTQSPSSLSASVGDRVTITCRASQSVSSAVAWYQQKPGKAPKLLIYSASSLYSGVPSRFSGSRSGTDFTLTISSLQPEDFATYYCQQGYFTYLFTFGQGTKVEIK | 0
* Fab N1/ModF/2 (Fab, V domains shown, Modified-F library Fab on a modified trastuzumab framework; Modified-F library Fab on a modified trastuzumab framework, CDRs L1 and L2 fixed; The Fab has a His tag (detected with anti-HIS antibody and biosensors); Template phagemid derived from the anti-MBP Fab of Library-F (Persson et al., 2013); source: E. coli BL21, purified (Protein-L resin)) VH: EVQLVESGGGLVQPGGSLRLSCAASGFNLYSSYIHWVRQAPGKGLEWVAYISPYSGSTYYADSVKGRFTISADTSKNTAYLQMNSLRAEDTAVYYCARYGYAYHPYHSGYWYGALDYWGQGTLVTVSS VL: DIQMTQSPSSLSASVGDRVTITCRASQSVSSAVAWYQQKPGKAPKLLIYSASSLYSGVPSRFSGSRSGTDFTLTISSLQPEDFATYYCQQVSAGYGPPITFGQGTKVEIK | 0
* Fab N1/F/R1 (Fab, V domains shown, Library-F rare Fab reconstructed from NGS information, modified trastuzumab framework; Library-F rare Fab reconstructed from NGS information, modified trastuzumab framework, CDRs L1 and L2 fixed; The Fab has a His tag (detected with anti-HIS antibody and biosensors); Library-F framework: Persson et al., 2013; source: E. coli BL21, purified (Protein-L resin)) VH: EVQLVESGGGLVQPGGSLRLSCAASGFNIYSSYIHWVRQAPGKGLEWVASIYPYYGSTYYADSVKGRFTISADTSKNTAYLQMNSLRAEDTAVYYCARYAHFSVYGAMDYWGQGTLVTVSS VL: DIQMTQSPSSLSASVGDRVTITCRASQSVSSAVAWYQQKPGKAPKLLIYSASSLYSGVPSRFSGSRSGTDFTLTISSLQPEDFATYYCQQWYGGYALFTFGQGTKVEIK | 0
* Fab N1/F/2 (Fab, V domains shown, Library-F Fab on a modified trastuzumab framework; Library-F Fab on a modified trastuzumab framework, CDRs L1 and L2 fixed; The Fab has a His tag (detected with anti-HIS antibody and biosensors); Library-F framework: Persson et al., 2013; source: E. coli BL21, purified (Protein-L resin)) VH: EVQLVESGGGLVQPGGSLRLSCAASGFNLSSYSIHWVRQAPGKGLEWVASISSSYGYTYYADSVKGRFTISADTSKNTAYLQMNSLRAEDTAVYYCARGYYAFDYWGQGTLVTVSS VL: DIQMTQSPSSLSASVGDRVTITCRASQSVSSAVAWYQQKPGKAPKLLIYSASSLYSGVPSRFSGSRSGTDFTLTISSLQPEDFATYYCQQWWSFPLITFGQGTKVEIK | 1
* Fab N1/ModF/5 (Fab, V domains shown, Modified-F library Fab on a modified trastuzumab framework; Modified-F library Fab on a modified trastuzumab framework, CDRs L1 and L2 fixed; The Fab has a His tag (detected with anti-HIS antibody and biosensors); Template phagemid derived from the anti-MBP Fab of Library-F (Persson et al., 2013); source: E. coli BL21, purified (Protein-L resin)) VH: EVQLVESGGGLVQPGGSLRLSCAASGFNISSSYMHWVRQAPGKGLEWVASIYSYSGSTYYADSVKGRFTISADTSKNTAYLQMNSLRAEDTAVYYCARSGYSGVSGSVYSYWPFYGLDYWGQGTLVTVSS VL: DIQMTQSPSSLSASVGDRVTITCRASQSVSSAVAWYQQKPGKAPKLLIYSASSLYSGVPSRFSGSRSGTDFTLTISSLQPEDFATYYCQQGPYHGYSLITFGQGTKVEIK | 0
* Fab N1/F/R3 (Fab, V domains shown, Library-F rare Fab reconstructed from NGS information, modified trastuzumab framework; Library-F rare Fab reconstructed from NGS information, modified trastuzumab framework, CDRs L1 and L2 fixed; The Fab has a His tag (detected with anti-HIS antibody and biosensors); Library-F framework: Persson et al., 2013; source: E. coli BL21, purified (Protein-L resin)) VH: EVQLVESGGGLVQPGGSLRLSCAASGFNIYSSYMHWVRQAPGKGLEWVASIYPYYGYTSYADSVKGRFTISADTSKNTAYLQMNSLRAEDTAVYYCARYFSYGPFYYGSGLDYWGQGTLVTVSS VL: DIQMTQSPSSLSASVGDRVTITCRASQSVSSAVAWYQQKPGKAPKLLIYSASSLYSGVPSRFSGSRSGTDFTLTISSLQPEDFATYYCQQGFSLITFGQGTKVEIK | 0
